Source: PubChem BioAssay (NCI)

# Tested on: OVCAR-4 ovarian
# protocol_summary: NCI tumour cell line growth inhibition, 48 h

[
  {
    "compound": "CC(=Nc1ccc(S(N)(=O)=O)cc1)c1c(O)[nH]c2ccccc12",
    "GI50": "> 25 µM"
  },
  {
    "compound": "COc1cc2nc(-c3ccc(C(F)(F)F)cc3)cc(OCCCN3CCCC3)c2cc1OC",
    "GI50": "3.1 µM"
  },
  {
    "compound": "CC(=O)[CH-]C(=O)c1ccccc1.CC(=O)[CH-]C(=O)c1ccccc1.CC1(C)OCC(C2OC3OC(C)(C)OC3C2[O-])O1.CC[O-].[Ti+4] (stereo unspecified)",
    "GI50": "14.2 µM"
  },
  {
    "compound": "COc1ccc(C2=C(N3CCc4ccccc43)C(=O)NC2=O)cc1",
    "GI50": "> 25 µM"
  },
  {
    "compound": "CC(C)Oc1ccc(C(=O)Cn2ccnc2)cc1-n1c(CN2CCN(C(=O)COc3ccc(Cl)cc3)CC2)nc2ccccc2c1=O",
    "GI50": "3.6 µM"
  },
  {
    "compound": "COc1cccc2c(=O)c3c(sc12)c(NCCCNCCO)nc1ccccc13",
    "GI50": "1.63 µM"
  }
]
